# test_protocol: Pharmacokinetic profile in rats (blood 15N-nitrite levels)
# Format: in vivo, rat
# applied_conditions: rat, in vivo, po, 30 mg/kg
metric_name: 15N-nitrite AUC0-24 (µM·min)

Solved entries (count: 5):
compound="CC1=C(C)C(=O)C(CCCCO[15N+](=O)[O-])=C(C)C1=O [^15N-Compound (3)]" scale_unit=µM·min readout_value=1404
compound="CC1=C(CCCCCCO[15N+](=O)[O-])C(=O)c2ccccc2C1=O [^15N-Compound (23)]" scale_unit=µM·min readout_value=2586
compound="CC1=C(CCCOCCCO[N+](=O)[O-])C(=O)c2ccccc2C1=O [^15N-Compound (25)]" scale_unit=µM·min readout_value=2010
compound="COC1=C(C)C(=O)C(CCCCCCCCO[N+](=O)[O-])=C(C)C1=O [^15N-Compound (32)]" scale_unit=µM·min readout_value=1892
compound="COC1=C(OC)C(=O)C(CCCCCO[15N+](=O)[O-])=C(C)C1=O [^15N-Compound (2)]" scale_unit=µM·min readout_value=1139

I = COC1=C(C)C(=O)C(C)=C(CCCCCCO[N+](=O)[O-])C1=O [^15N-Compound (28)]
II = CC1=C(C)C(=O)C(CCCCCCO[15N+](=O)[O-])=C(C)C1=O [^15N-Compound (15)]
Thinking about recorded 15N-nitrite AUC0-24 values, which is higher, I or II ? // caller expects the label of the chosen entry
II
